# Test Name: Pharmacokinetics of TXA in swine plasma after IV and IM administration
# Assay type: in vivo, domestic pigs
# Assay Conditions: pig, plasma, intramuscular, 1 g
# Method: Studies of pharmacokinetics (PK) and pharmacodynamics (PD) of TXA were performed in swine conducted in compliance with Good Laboratory Practice (GLP) standards. All facilities and activities were accredited in accordance with GLP and ISO9001 (2015). Eighteen domestic pigs were assigned to four test groups. Group 1: Control, IM administered with vehicle (0.9% NaCl, pH 3-4, w/v), two animals were administered 2 mL vehicle, one animal administered 4 mL vehicle. […]
Endpoint: bioavailability

Ask: What value of bioavailability has been recorded for this entry: NC[C@H]1CC[C@H](C(=O)O)CC1
Result: > 100%
